species on record: Rattus norvegicus; test: Open TG-GATES - Regimen: Single; type: toxicity, organism-based, Sprague-Dawley; design: regimen Single, gender Male, age 6 weeks; conditions: in vivo, po, 0 mg/kg, 24 h, tissue Blood, route gavage, dose level Control
quantity.measured: APTT
In your response, put the unit directly after the numeric value.

Return reported APTT; argument: CC(CN1c2ccccc2Sc2ccccc21)N(C)C (stereo unspecified)
22.1 s

Continue with "CN(C)[C@@H]1C(O)=C(C(N)=O)C(=O)[C@@]2(O)C(O)=C3C(=O)c4c(O)cccc4[C@@](C)(O)[C@H]3C[C@@H]12"
16.6 s

Next entry: "CN1C(C(=O)Nc2ccccn2)=C(O)c2sc(Cl)cc2S1(=O)=O"
19.9 s

Can you handle "C#C[C@]1(O)CC[C@H]2[C@@H]3CCC4=Cc5oncc5C[C@]4(C)[C@H]3CC[C@@]21C" next?
23.6 s

Try this compound next: CC(=O)Nc1nnc(S(N)(=O)=O)s1 [ACETAZOLAMIDE]
20.3 s

Try the compound "Clc1c(Cl)c(Cl)c(Cl)c(Cl)c1Cl"
18.7 s

* * *

species on record: Rattus norvegicus; assay: Open TG-GATES - Regimen: Daily Repeat; assay type: toxicity, organism-based, Sprague-Dawley; parameters: regimen Daily Repeat, gender Male, age 6 weeks; conditions: in vivo, po, 0 mg/kg, […], tissue Kidney, route gavage, dose level Control, time 14 day
Provide the recorded KIDNEY_L for the entries that follow.
Could you give me the number in g? Just the number is fine.

If you can, please state the reported KIDNEY_L value of C1CCC(C(CC2CCCCN2)C2CCCCC2)CC1 (stereo unspecified) [PERHEXILINE] .
1.1

Cool, now C#C[C@]1(O)CC[C@H]2[C@@H]3CCC4=Cc5oncc5C[C@]4(C)[C@H]3CC[C@@]21C [DANAZOL]
1.3

Same question, O=C(O)Cc1ccccc1Nc1c(Cl)cccc1Cl [DICLOFENAC] this time
1.3

Please give the result for Clc1c(Cl)c(Cl)c(Cl)c(Cl)c1Cl [PERCHLOROBENZENE] too.
1.3

Param item: CC(=O)Nc1nnc(S(N)(=O)=O)s1 [ACETAZOLAMIDE]
1.2

For CN1C(C(=O)Nc2ccccn2)=C(O)c2sc(Cl)cc2S1(=O)=O [LORNOXICAM] then?
1.3

* * *

species: Rattus norvegicus; assay: Open TG-GATES - Regimen: Daily Repeat; type: toxicity, organism-based, Sprague-Dawley; parameters: regimen Daily Repeat, gender Male, age 6 weeks; conditions: in vivo, po, 0 mg/kg, 72 h, tissue Blood, route gavage, dose level Control, time 3 day
quantity.measured: Neu (%)
Just the number in %, nothing appended.

Suppose we examine the molecule "C#C[C@]1(O)CC[C@H]2[C@@H]3CCC4=Cc5oncc5C[C@]4(C)[C@H]3CC[C@@]21C" ; what Neu value has been reported?
17.2

What do you get for "O=C(O)Cc1ccccc1Nc1c(Cl)cccc1Cl" ?
21

Item: CC(=O)Nc1nnc(S(N)(=O)=O)s1 [ACETAZOLAMIDE]
16

Please do the same for "CN1C(C(=O)Nc2ccccn2)=C(O)c2sc(Cl)cc2S1(=O)=O" as well.
16.2

What do you get for "CN(C)[C@@H]1C(O)=C(C(N)=O)C(=O)[C@@]2(O)C(O)=C3C(=O)c4c(O)cccc4[C@@](C)(O)[C@H]3C[C@@H]12" ?
10

Same lookup for CC(CN1c2ccccc2Sc2ccccc21)N(C)C (stereo not given) , please.
14.5

Continue with "Cc1cccc(Nc2ccccc2C(=O)O)c1C"
18.2

Lookup "Clc1c(Cl)c(Cl)c(Cl)c(Cl)c1Cl"
13.8

# repeat for "CCOC(=O)[C@H](CCc1ccccc1)N[C@@H](C)C(=O)N1CCC[C@H]1C(=O)O"
17.4

Can you check C1CCC(C(CC2CCCCN2)C2CCCCC2)CC1 (stereo not given) next?
16.2

* * *

Exercise: state measured Fbg for each of the compounds provided.
organism: Rattus norvegicus; assay: Open TG-GATES - Regimen: Daily Repeat; type: toxicity, organism-based, Sprague-Dawley; set-up: regimen Daily Repeat, gender Male, age 6 weeks; details: in vivo, po, 0 mg/kg, 72 h, tissue Blood, route gavage, dose level Control, time 3 day
Report only the number, with the unit mg/dL understood.

# query: Fbg of entry O=C(O)Cc1ccccc1Nc1c(Cl)cccc1Cl [DICLOFENAC]
222.6

Param item: CN(C)[C@@H]1C(O)=C(C(N)=O)C(=O)[C@@]2(O)C(O)=C3C(=O)c4c(O)cccc4[C@@](C)(O)[C@H]3C[C@@H]12 [TETRACYCLINE]
221

Another compound: Clc1c(Cl)c(Cl)c(Cl)c(Cl)c1Cl [PERCHLOROBENZENE]
217.4

Same for CC(CN1c2ccccc2Sc2ccccc21)N(C)C (stereo not given) [PROMETHAZINE]
309

// next record C1CCC(C(CC2CCCCN2)C2CCCCC2)CC1 (stereo not given) [PERHEXILINE]
312.4

How about C#C[C@]1(O)CC[C@H]2[C@@H]3CCC4=Cc5oncc5C[C@]4(C)[C@H]3CC[C@@]21C [DANAZOL] ?
304.4

Also check CN1C(C(=O)Nc2ccccn2)=C(O)c2sc(Cl)cc2S1(=O)=O [LORNOXICAM]
223.4

Okay, and CC(=O)Nc1nnc(S(N)(=O)=O)s1 [ACETAZOLAMIDE] ?
302.2

Now the compound "CCOC(=O)[C@H](CCc1ccccc1)N[C@@H](C)C(=O)N1CCC[C@H]1C(=O)O"
242

Same question for Cc1cccc(Nc2ccccc2C(=O)O)c1C [MEFENAMIC ACID] please.
223.4

* * *

species on record: Rattus norvegicus; assay: Open TG-GATES - Regimen: Daily Repeat; type: toxicity, organism-based, Sprague-Dawley; parameters: regimen Daily Repeat, gender Male, age 6 weeks; conditions: in vivo, po, 0 mg/kg, […], tissue Plasma, route gavage, dose level Control, time 14 day
Exercise: for every item that follows, state its recorded Cl.
Quick note: give the figure in meq/L, leave out the unit.

// query Cl value for entry CN(C)[C@@H]1C(O)=C(C(N)=O)C(=O)[C@@]2(O)C(O)=C3C(=O)c4c(O)cccc4[C@@](C)(O)[C@H]3C[C@@H]12 [TETRACYCLINE]
103.2

Do the same for CN1C(C(=O)Nc2ccccn2)=C(O)c2sc(Cl)cc2S1(=O)=O [LORNOXICAM] please
104.4

Same question, Cc1cccc(Nc2ccccc2C(=O)O)c1C [MEFENAMIC ACID] this time
103

Please give the result for C1CCC(C(CC2CCCCN2)C2CCCCC2)CC1 (configuration not stated) [PERHEXILINE] too.
107

Same thing, different compound: CC(CN1c2ccccc2Sc2ccccc21)N(C)C (configuration not stated) [PROMETHAZINE]
105.4

Clc1c(Cl)c(Cl)c(Cl)c(Cl)c1Cl [PERCHLOROBENZENE] ?
105.6

Input "CCOC(=O)[C@H](CCc1ccccc1)N[C@@H](C)C(=O)N1CCC[C@H]1C(=O)O"
106.4

* * *

species on record: Rattus norvegicus; experiment: Open TG-GATES - Regimen: Single; format: toxicity, organism-based, Sprague-Dawley; set-up: regimen Single, gender Male, age 6 weeks; details: in vivo, po, 0 mg/kg, 6 h, tissue Plasma, route gavage, dose level Control
Field: BUN. Provide a value for each of the compounds that follow.
Give the quantity in mg/dL, number only.

I am curious: what BUN value has been reported for C1CCC(C(CC2CCCCN2)C2CCCCC2)CC1 (centres undefined) [PERHEXILINE] ?
11.4

Another: Cc1cccc(Nc2ccccc2C(=O)O)c1C [MEFENAMIC ACID]
8.6

What about COc1cc([C@@H]2c3cc4c(cc3[C@@H](O[C@@H]3O[C@@H]5CO[C@@H](C)O[C@H]5[C@H](O)[C@H]3O)[C@H]3COC(=O)[C@H]23)OCO4)cc(OC)c1O [ETOPOSIDE] ?
11.6

Another compound to look at: "CCOC(=O)[C@H](CCc1ccccc1)N[C@@H](C)C(=O)N1CCC[C@H]1C(=O)O"
9.8

Again, but for CC(CN1c2ccccc2Sc2ccccc21)N(C)C (centres undefined) [PROMETHAZINE]
11.2

Can you handle CN1C(C(=O)Nc2ccccn2)=C(O)c2sc(Cl)cc2S1(=O)=O [LORNOXICAM] next?
11

Same question for C#C[C@]1(O)CC[C@H]2[C@@H]3CCC4=Cc5oncc5C[C@]4(C)[C@H]3CC[C@@]21C [DANAZOL] please.
9.2

Entry to check: CN(C)[C@@H]1C(O)=C(C(N)=O)C(=O)[C@@]2(O)C(O)=C3C(=O)c4c(O)cccc4[C@@](C)(O)[C@H]3C[C@@H]12 [TETRACYCLINE]
9

Now consider Clc1c(Cl)c(Cl)c(Cl)c(Cl)c1Cl [PERCHLOROBENZENE] .
9.2

Where these numbers come from: ChEMBL document CHEMBL3885861
